# Tested on: Chordin-like protein 2 (CHRDL2)
# Protocol: compounds binding chordin-like 2 – biochemical, small-molecule microarray, 635 nm fluorescence, primary screen (AID 1126);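 note: printed compound slides probed with Chrdl2 protein at 4 µg/mL for 1 h at 4 C; score merges 667 nm emission intensity with signal to noise over three replicate slides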
# Settings: fluorescence 635 nm, higher = more signal
Label T when composite z-score is at or above -0.1; otherwise label F.

Query smiles	Cat
CN(C)CCCC[C@@H]1NC(=O)[C@H]2C[C@@H](C(=O)NCCCCCN)[C@@H](c3cccc(OCCO)c3)N2C1=O	T
CCCCC(=C=CC[C@@H](O)c1ccc(CO)o1)CCO	T
COCCCNC(=O)[C@@]1(CCS(=O)(=O)c2ccccc2)N=C(c2ccc(OCCCO)cc2)O[C@H]1c1ccccc1N=[N+]=[N-]	F
CCCC=C(CCC)[C@@H](NS(=O)(=O)c1ccc(Cl)cc1)c1ccc(C(=O)OC)cc1	T
C=CC[C@]1(C(=O)NCc2ccccc2)N=C(c2ccc(OCCCO)cc2)O[C@H]1c1ccccc1CN=[N+]=[N-]	F
O=C1N(CCS(=O)(=O)c2ccccc2)c2ccccc2[C@@H]2OC(c3ccc(OCCCO)cc3)=N[C@]12Cc1ccccc1	T
COc1cc2c(cc1O)C=[N+](Cc1cc3c(cc1Br)OCO3)CC2	F
NC(=O)[C@@H]1[C@H]2C(=O)O[C@H](c3ccccc3)[C@H](c3ccccc3)N2[C@H](c2ccc(O)cc2)[C@@]12C(=O)Nc1ccc(C#CC3=CCCCC3)cc12	T

* * *

# Tested target: NADPH oxidase 4 (Homo sapiens)
# Protocol: compounds shifting NOX4 Amplex Red fluorescence – cell-based, HEK293-NOX4, tetracycline-induced, NOX inhibitor project, primary screen (AID 1160)
# Settings: HEK293-NOX4, Amplex Red H2O2 fluorescence, 45 min; higher = more signal, called active from +8 up or from −8 down
Outcome label depends on z-score relative to 0.6: at/above gives y, below gives n.

Compound	Cat
CCCCCCc1nc(-c2ccc(-c3ccc(Cl)c(Cl)c3)o2)c(C)c2c1[Si](C(C)C)(C(C)C)OC2	n
CC(c1ccccc1)C(O)C1C=CC2C(=O)N(c3ccccc3)C(=O)C2N1Nc1ccccc1 (stereo not drawn)	n
O=C1NC(=O)C2C1C=CC(C(O)C1CC=CCC1)N2Nc1ccccn1 (stereo not drawn)	n
O=C1C2C=CC(C(O)c3ccc(-c4ccccc4)s3)N(Nc3ccccc3)C2C(=O)N1c1ccccc1 (stereo not drawn)	n
CCCC[C@@H]1C[C@H]1[C@@H](NC(=O)c1cccnc1)c1ccc(Cl)cc1	n
O=C(O)[C@@]1(CCS(=O)(=O)c2ccccc2)N=C(c2ccc(OCCCO)cc2)O[C@H]1c1ccccc1	y

* * *

# Protocol: growth modulation of vineyard yeast isolate – strain RM11-1a, OD600, basal, 24 h, primary screen (AID 1177);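 note: cultures grown under basal conditions with no added stressor; test concentration not given here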
# Settings: S. cerevisiae RM11-1a growth, OD600, 24 h; higher = more signal, called active from +8 up or from −8 down
z-score below -0.04 gives condition not met; z-score at or above it gives condition met.

Compound	Cat
COC(=O)[C@@]1(Cc2ccc(F)cc2)[C@H]2c3cc(C(=O)N(C)C)n(Cc4cc(C)n(C)n4)c3C[C@H]2CN1C(=O)c1ccccc1	condition met
CCOC(=O)C[C@H]1[C@H](OC(=O)c2ccc(C(=O)c3ccccc3)cc2)[C@@H](NC(=O)c2ccccc2)c2cc(OCCCO)ccc2N1C(=O)c1ccccc1	condition met
COc1ccccc1CN1C(=O)c2ccccc2[C@@H](C(=O)NCc2ccccc2)[C@@H]1c1ccc(CO)cc1	condition met
COCCOC(=O)N1C(=O)[C@@]2(c3ccccc31)[C@H](C(=O)N1CCCCCCC1)[C@H]1C(=O)O[C@H](c3ccccc3)[C@H](c3ccccc3)N1[C@@H]2c1ccc(OCCO)cc1	condition met
COc1ccc(C(O)C2C=CC3C(=O)N(C)C(=O)C3N2NC(=O)OC(C)(C)C)c2ccccc12 (configuration not stated)	condition met
OB1C=CCC(CCc2ccccc2)O1 (configuration not stated)	condition not met
NCCCCCNC(=O)[C@H]1C[C@H]2C(=O)N[C@@H](Cc3ccccc3)C(=O)N2[C@H]1c1cccc(OCCO)c1	condition not met

* * *

# Protocol: probe aLefty2 binding to arrayed compounds – biochemical, biotinylated probe, 635/667 nm fluorescence, primary screen (AID 1094);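 note: score merges spot fluorescence near 667 nm with spot signal-to-noise ratio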
# Settings: small-molecule microarray, higher = more signal

Compound	composite z-score
CCOC(=O)C1=CC[C@@H](c2ccc(C(F)(F)F)cc2)N(S(=O)(=O)c2ccc(C)cc2)[C@H]1c1ccccc1	0.285
CCOc1cc(C(O)C2C=CC3C(=O)N(c4ccccc4)C(=O)C3N2Nc2ccc(C(C)C)cc2)ccc1O (configuration not stated)	0.0261
O=C1C2C=CC(C(O)c3ccc(F)cc3)N(Nc3ccc([N+](=O)[O-])cc3)C2C(=O)N1c1ccccc1 (configuration not stated)	0.187
COc1ccc(NN2C(C(O)c3ccc(N(C)C)cc3)C=CC3C(=O)N(C4CCCCC4)C(=O)C32)cc1 (configuration not stated)	0.329
C=CCNC(=O)[C@@H]1[C@H]2C(=O)O[C@H](c3ccccc3)[C@H](c3ccccc3)N2[C@H](c2ccc(OCCO)cc2)[C@@]12C(=O)N(C(=O)OCCOC)c1ccc(C#CCC(C(=O)OC)C(=O)OC)cc12	0.0398
COC(=O)[C@@]1(CCC(=O)OC(C)(C)C)N=C(c2ccc(OCCCO)cc2)O[C@H]1c1ccccc1	0.0478
NCCCCCCNC(=O)[C@H]1C[C@H]2C(=O)N[C@@H](Cc3ccccc3)C(=O)N2[C@H]1c1cccc(OCCO)c1	0.255
O=C(O)[C@H](Cc1ccccc1)n1cc(-c2ccccc2)nn1	-0.0592
O=C1O[C@H](c2ccccc2)[C@H](c2ccccc2)N2[C@H]1[C@@H](C(=O)NC[C@H](O)c1ccccc1)[C@]1(C(=O)Nc3ccc(C#CC4=CCCCC4)cc31)[C@H]2c1ccccc1OCCO	0.107
CC(C)Cc1ccc(CN2CC[C@@H](N)C2)cc1	-0.119
C=C(C)[C@@H]1CC=C(C(O)C2C=CC3C(=O)NC(=O)C3N2Nc2ccc(Cl)cc2Cl)CC1 (some centres not stated)	0.325
CN(C)C(=O)[C@]1(Cc2ccccc2)N=C(c2ccc(OCCCO)cc2)O[C@@H]1c1ccccc1N=[N+]=[N-]	0.141
CC(c1ccccc1)C(O)C1C=CC2C(=O)N(C)C(=O)C2N1NC(=O)OC(C)(C)C (configuration not stated)	0.12
C=C(CCCC)/C(=C/C[C@@H](OC(C)=O)c1cccc(OCCO)c1)c1cnc2ccccc2c1	-0.194
C=C(/C(=C/C[C@H](OC(=O)c1ccncc1)c1ccc(OCCO)cc1)c1cc(C(=O)OC)ccc1OC)C(C)C	-0.072
CCCNC(=O)[C@@H]1c2ccccc2C(=O)N(Cc2ccccc2OC)[C@H]1c1ccc(CO)cc1	-0.139
NC(=O)NCC#Cc1ccc2c(c1)[C@]1(C(=O)N2)[C@H](C(=O)O)[C@H]2C(=O)O[C@H](c3ccccc3)[C@H](c3ccccc3)N2[C@@H]1c1ccc(O)cc1	0.883
COCCOC(=O)N1C(=O)[C@@]2(c3cc(C#CC4(O)CCCCCC4)ccc31)[C@H](C(=O)Nc1nc3ccccc3s1)[C@H]1C(=O)O[C@H](c3ccccc3)[C@H](c3ccccc3)N1[C@@H]2c1ccccc1OCCO	-0.0575
C=C(CCCC)C(=O)CC[C@H](OC(=O)c1cccnc1)c1ccc(OCCO)cc1	-0.0547
COCCCNC(=O)[C@@]1(Sc2ccc(C)cc2)CC(=O)N(Cc2ccccc2Cl)[C@@H]1c1ccc(CO)cc1	0.0112
CC(C)OC(=O)C=C1C[C@@H](c2cccc(Cl)c2)O[C@@H](c2cccc(Cl)c2)O1	-0.0009
COC(=O)[C@H](Cc1ccccc1)N[C@H](/C=C/C1CC1)[C@@H](O)Cc1ccccc1	-0.279
COc1ccc([C@H]2C[C@H]3C(Br)=C[C@@]2(CO)C(=O)[C@]32CO2)cc1	0.0395
CC#CC(=O)Oc1ccc(Br)cc1C=CC(=O)OCC	0.188
CS(=O)(=O)CCOC(=O)C1=CC(CCCO)=CC(c2ccc(CN3CCCC3)cc2)N(Cc2cccc(OC(F)(F)F)c2)C=C1C(=O)OCCS(C)(=O)=O (configuration not stated)	0.336
CCCCC(=C=CC[C@H](O)c1cccc(OCCO)c1)C[C@H](O)c1ccccn1	-0.165
C=CCN1C(=O)[C@]2(O[C@H](CCO)[C@@H]([Si](C)(C)c3ccc(OC)cc3)[C@@H]2C)c2cc(N(C=O)c3ccccc3)ccc21	-0.121
CCOC(=O)C[C@H]1[C@H](OC(=O)c2ccc(C(=O)c3ccccc3)cc2)[C@@H](NC(=O)c2ccccc2)c2cc(OCCCO)ccc2N1C(=O)c1ccccc1	-0.0154
COc1cc2c(cc1O)C(c1cccs1)N(Cc1ccc([N+](=O)[O-])o1)CC2 (configuration not stated)	0.156
Cc1ccc(S[C@]2(C(=O)NCC(C)C)CC(=O)N(Cc3cc(C(F)(F)F)cc(C(F)(F)F)c3)[C@@H]2c2ccc(CO)cc2)cc1	0.522
OCC1C=C(/C=C/c2ccccc2)CN1Cc1ccccc1Br (configuration not stated)	0.0265
COc1cc(CO)cc(I)c1O[C@H]1C=C(C(=O)NCCO)C[C@@H](N(C(=O)c2cc3ccccc3oc2=O)C2CCCCCC2)[C@@H]1O	-0.198
